Value source: PubChem BioAssay (NCI)

So I've got a bunch of compounds here, and I need their TGI values.
System: MALME-3M melanoma
Assay: NCI tumour cell line growth inhibition, 48 h

Example compounds with recorded TGI:
INSERT INTO results (compound, observed_value) VALUES
  ('N#CC1CCN2N=C(c3ccccc3)SC12c1ccccc1 (configuration not stated)', '> 100 µM'),
  ('O=C(O)C1CCCCN1C(=O)c1ccccc1 (configuration not stated)', '> 100 µM'),
  ('Cc1cc(-c2nc(-c3ccc(OC(F)(F)F)cc3)no2)nn1Cc1ccnc(N2CCN(C3CC3)CC2)c1', '> 55.6 µM'),
  ('COc1ccc(-c2nn(-c3cccc(NC(=O)Nc4cc(C(F)(F)F)cc(C(F)(F)F)c4)c3)cc2-c2ccncc2)cc1Cl', '4.2 µM'),
  ('C=C(C)[C@@]1(O)CCC[C@H]1NC(=O)OC(C)(C)C', '> 100 µM');

For each of the compounds below, state TGI.
1. CC(=O)O[C@H]1CC[C@@]2(C)C(=CC[C@@H]3[C@@H]2CC[C@]2(C)C(=N/O)/C(=C/c4ccc([N+](=O)[O-])cc4)C[C@@H]32)C1
2. O=C(O)CCCCn1cnc2c(=S)nc[nH]c21
3. Cc1cc(C)cc(Sc2c([N+](=O)[O-])ncn2C)c1
4. CC(=O)OC1CCC2(C)C(=CCC3C2CCC2(C)C(C(C)C(=O)O)CCC32)C1 (configuration not stated)
5. O=C1C(Cl)=C(Nc2cccc(O)c2)C(=O)N1c1ccc(Cl)c(Cl)c1
6. Cc1ccc(S(=O)(=O)Oc2ccc(OS(=O)(=O)c3ccc(C)cc3)c3c2C(=O)c2ccccc2C3=O)cc1

> 100 µM
> 100 µM
25.3 µM
> 100 µM
55 µM
> 100 µM

----------
Tested on: COLO 205 colon
Experiment: NCI tumour cell line growth inhibition, 48 h; in the data active means GI50 below about 0.43 µM; inactive means the rest
Hello, when you answer, please use one of the following outcomes: yes for active, no for inactive

Would you mind telling me which call this test gave `COc1ccc(Cc2cnc(NC(=O)c3sc4ccccc4c3Cl)s2)cc1` ?
yes

Also `CC[CH2][Sn]([Cl])([Cl])[CH2]CC` , if possible.
no

Another: `CN1CCN(Cc2ccc(NC(=O)c3ccc(C#N)c(C#Cc4cnc(N)c5ncccc45)c3)cc2C(F)(F)F)CC1`
no

----------
System: OVCAR-5 ovarian
Assay: NCI tumour cell line growth inhibition, 48 h
QUANTITY_MEASURED: GI50

Recorded GI50, per entry:
INSERT INTO measurements (compound_string, measured_on, observed_value) VALUES
  ('N#Cc1c(NC(=O)CN2CCOCC2)sc2c1CCCC2', 'OVCAR-5 ovarian', '> 25 µM'),
  ('O=C1C(Cl)=C(Nc2cccc(O)c2)C(=O)N1c1ccc(Cl)c(Cl)c1', 'OVCAR-5 ovarian', '18 µM'),
  ('C/C(=C\CCc1ccoc1)CC/C=C(\C)CCCN1CCC(CO)CC1', 'OVCAR-5 ovarian', '4.39 µM'),
  ('C=C1C(=O)O[C@@H]2C[C@@H]1CC[C@@]1(C)O[C@@H]1CC[C@@]1(C)O[C@@H]1CC[C@@]2(C)O', 'OVCAR-5 ovarian', '20.5 µM'),
  ('CC1=C(/C=C/C(C)=C/C=C/C(C)=C/C(=O)Nc2ccc(O)cc2)C(C)(C)CCC1', 'OVCAR-5 ovarian', '12.5 µM');

# batch: return GI50 for each of the 5 molecules below
1. COC(=O)Nc1nc2cc3c(cc2s1)OCCO3
2. N#Cc1cccc(NC(=O)c2oc3ccccc3c2-c2cnn(-c3ccccc3)c2)c1
3. COc1ccc(C2=C(c3cc(OC)c(OC)c(OC)c3)C(=O)CC2)cc1
4. CN1CCN(Cc2ccc(NC(=O)c3ccc(C#N)c(C#Cc4cnc(N)c5ncccc45)c3)cc2C(F)(F)F)CC1
5. COc1c(CNC(=O)CCl)cc2[nH]c(C)cc2c1CNC(=O)CCl

> 50 µM
> 500 µM
0.662 µM
1.71 µM
5.44 µM

----------
Tested on: OVCAR-5 ovarian
Assay: NCI tumour cell line growth inhibition, 48 h
QUANTITY_MEASURED: TGI

Worked set:
INSERT INTO assay_data (compound, measured_on, observed_value) VALUES
  ('O=C(Nc1ccccc1Br)c1cccc([N+](=O)[O-])c1O', 'OVCAR-5 ovarian', '> 94 µM'),
  ('CN(c1ccccc1)C1C(=O)N(c2ccccc2)C1/C=C/c1ccccc1 (configuration not stated)', 'OVCAR-5 ovarian', '> 100 µM'),
  ('N#CC1CCN2N=C(c3ccccc3)SC12c1ccccc1 (configuration not stated)', 'OVCAR-5 ovarian', '> 100 µM'),
  ('O=C(CCCc1ccccn1)c1ccccc1', 'OVCAR-5 ovarian', '> 100 µM'),
  ('C=C1Oc2nc3ccccc3c(=O)n2C1(C)C', 'OVCAR-5 ovarian', '> 100 µM'),
  ('Cc1ccc2c(=O)c(-c3nnc(N)s3)c[nH]c2n1', 'OVCAR-5 ovarian', '> 100 µM'),
  ('CC1(C)C(=S)C(C)(C)C1=S', 'OVCAR-5 ovarian', '> 100 µM'),
  ('COc1ccc(N[C@H](CS(=O)c2ccc(C)cc2)C(F)(F)C(F)(F)F)cc1 (some centres not stated)', 'OVCAR-5 ovarian', '> 100 µM'),
  ('CC1(C)C[C@H]2C=C(C=O)[C@]34C[C@]3(C(=O)OC4O)[C@H]2C1 (some centres not stated)', 'OVCAR-5 ovarian', '5.14 µM'),
  ('CN(C)c1ccc(/C=C(\NC(=O)c2ccccc2)C(=O)Nc2ccccc2C(=O)O)cc1', 'OVCAR-5 ovarian', '> 100 µM');

Can you give me TGI for all of these, one by one?
1. C#CCOC(=O)C(N)CSSCC(N)C(=O)O (configuration not stated)
2. COC(=O)[C@H](CC(C)C)NC(=O)NC(=O)NC(=O)CI

1. > 100 µM
2. 30 µM

----------
Tested on: KM12 colon
Assay: NCI tumour cell line growth inhibition, 48 h; in the data active = GI50 below about 0.43 µM; inactive = the rest
Outcome (select one): 1 (active), -1 (inactive)

Below, 3 compounds whose answers are already recorded.
INSERT INTO assay_data (compound_string, measured_on, group) VALUES
  ('CCCCN(CCCC)CCCN=c1nc2c(c(N)n1-c1ccccc1)c(=S)n(-c1ccccc1)c(=S)n2-c1ccccc1', 'KM12 colon', 1),
  ('COc1ccc(/C=C/c2cc(N3CCOCC3)c3cc(F)c(F)cc3n2)cc1OC', 'KM12 colon', -1),
  ('C#COc1cccc(Nc2ncnc3ncc(NC(=O)CCl)cc23)c1', 'KM12 colon', -1);

Each compound tested received a call. Report the one for `COc1ccc(/C=C\c2cc(OC)c(OC)c(OC)c2)cc1OC(=O)c1cccc(Cn2cc(CCOC(=O)c3cccc(Cn4nnc5c4C(=O)c4ccccc4C5=O)c3)nn2)c1` .
1

Then `COc1ccc(-c2nn(-c3cccc(NC(=O)Nc4cc(C(F)(F)F)cc(C(F)(F)F)c4)c3)cc2-c2ccncc2)cc1Cl` ?
-1

Now try `Nc1ccccc1NC(=O)c1ccc(CN2CCC/C(=C\c3cccc(Cl)c3)C2=O)cc1` .
1

----------
Tested on: T-47D breast
Assay: NCI tumour cell line growth inhibition, 48 h; in the data active = GI50 below about 0.43 µM; inactive = the rest
# valid calls are t (active), f (inactive); nothing else

INSERT INTO results (compound_string, group) VALUES
  ('CC1=C(/C=C/C(C)=C/C=C/C(C)=C/C(=O)Nc2ccc(O)cc2)C(C)(C)CCC1', 'f'),
  ('COc1cc([C@@H]2c3cc4c(cc3[C@@H](O[C@@H]3O[C@@H]5CO[C@@H](c6cccs6)O[C@H]5[C@H](O)[C@H]3O)[C@H]3COC(=O)[C@H]23)OCO4)cc(OC)c1O', 't'),
  ('Nc1ccccc1NC(=O)c1ccc(CN2CCC/C(=C\c3cccc(Cl)c3)C2=O)cc1', 'f');

Now for another entry.
Kindly provide the recorded test outcome for the following compound: `C=C(C)[C@@H]1CCC2=C[C@@H](OC2=O)[C@@H](C(=C)C)C(=O)/C=C(/C)C(=O)C1`
f

----------
System: NCI-H460 lung
Test: NCI tumour cell line growth inhibition, 48 h
Kindly supply the reported log10(TGI) values for the records listed here.
In our notation, the value equals log10 of TGI in µM.

// worked examples, log10(TGI) included
INSERT INTO measurements (compound, quantity_measured, observed_value) VALUES
  ('CCc1c(Cl)nc(Cl)nc1Cl', 'log10(TGI)', 1.02),
  ('CC(/C=C/c1ccc([N+](=O)[O-])o1)=N/N1CC(CN2CCOCC2)OC1=O (stereo unspecified)', 'log10(TGI)', 1.67),
  ('Cc1cccc2c(N)c3cccc(C(=O)NCCN(C)C)c3nc12', 'log10(TGI)', -1.58),
  ('CCN(CC)C(=S)SC1CCOP(=O)(N(CCCl)CCCl)N1C (stereo unspecified)', 'log10(TGI)', 1.16);

Please state log10(TGI) for every compound in the list that follows.
1. CCOC(=O)c1c(C)n2c(=O)cc(C)c3c(OC(C)=O)c(OC(C)=O)cc1c32
2. Cc1c(CCCl)c(N=[N+]=[N-])n2c(nc3ccccc32)c1C#N

1.28
0.52

Hi! Can you tell me log10(TGI) for each of these compounds?
1. COc1c(CNC(=O)CCl)cc2[nH]c(C)cc2c1CNC(=O)CCl
2. CC1OC(OC2CC(O)C3(CO)C4C(O)CC5(C)C(C6=CC(=O)OC6)CCC5(O)C4CCC3(O)C2)C(O)C(O)C1O (stereo unspecified)
3. C=C(CS(=O)(=O)c1ccccc1)[P+](c1ccccc1)(c1ccccc1)c1ccccc1

1. 1.19
2. -1.76
3. 1.82
